# key: entry, value: kon
Experimental System: T1, human transportin 1 (Trn1, residues 1-890) (human, UniProt Q92973-2 1-890)
T1 construct: transportin 1 (Trn1), human, full-length, residues 1-890; numbers count on: the 890-residue form; Cloned in pGEX-4T-3 with a TEV site; clone was a gift from Y. M. Chook; source: E. coli BL21 (DE3), purified (glutathione Sepharose, TEV cleavage, HiTrap Q FF, Superdex 200)
T1 sequence (looked up): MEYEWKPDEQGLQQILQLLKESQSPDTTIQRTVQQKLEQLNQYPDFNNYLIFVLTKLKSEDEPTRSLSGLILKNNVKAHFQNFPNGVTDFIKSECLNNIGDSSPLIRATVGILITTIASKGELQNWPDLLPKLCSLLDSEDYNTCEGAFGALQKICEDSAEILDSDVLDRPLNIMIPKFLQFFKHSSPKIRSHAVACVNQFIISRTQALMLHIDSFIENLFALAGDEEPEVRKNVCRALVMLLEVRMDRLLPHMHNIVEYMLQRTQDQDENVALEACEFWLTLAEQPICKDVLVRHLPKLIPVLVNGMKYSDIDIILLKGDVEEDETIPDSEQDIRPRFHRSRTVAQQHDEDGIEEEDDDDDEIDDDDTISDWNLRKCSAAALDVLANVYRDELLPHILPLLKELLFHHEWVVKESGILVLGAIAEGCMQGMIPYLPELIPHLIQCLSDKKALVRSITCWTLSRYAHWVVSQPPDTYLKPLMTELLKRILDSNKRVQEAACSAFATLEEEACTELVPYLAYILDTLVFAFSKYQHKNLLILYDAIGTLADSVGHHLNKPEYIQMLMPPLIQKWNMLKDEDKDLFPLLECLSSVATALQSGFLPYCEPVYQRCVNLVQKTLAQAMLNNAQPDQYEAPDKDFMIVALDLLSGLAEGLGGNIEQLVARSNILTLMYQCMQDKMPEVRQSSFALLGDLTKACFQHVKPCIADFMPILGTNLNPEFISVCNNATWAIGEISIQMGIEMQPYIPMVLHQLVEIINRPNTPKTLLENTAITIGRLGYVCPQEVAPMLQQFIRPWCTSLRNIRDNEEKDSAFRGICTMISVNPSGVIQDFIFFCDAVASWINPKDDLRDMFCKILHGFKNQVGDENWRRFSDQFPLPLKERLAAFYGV
Test Name: SPR; BIAcore 3000, 25°C; Trn1 immobilised on a CM5 chip by amine coupling (about 8600 RU); FUS-NLS injected at increasing concentrations, 50 µl/min; 20 mM HEPES pH 7.3, 110 mM potassium acetate, 2 mM magnesium acetate, 2 mM EGTA, 2 mM DTT, 10% glycerol, 0.005% Tween 20; 1:1 Langmuir fit
Run Parameters: both partners purified

Binder	kon [M⁻¹ s⁻¹]
RGGRGGGDRGGFGPGKMDSRGEHRQDGRERPY (domain or fragment, human, UniProt P35637 495-526, looked up, ALS-associated mutation found in patients; made by site-directed mutagenesis; not shown: GST, N-terminal, cleaved) [FUS-NLS(R521G)]	140000
RGGRGGGDRGGFGPGKMDSRGEHRQDRRESPY (domain or fragment, human, UniProt P35637 495-526, looked up, ALS-associated mutation found in patients; made by site-directed mutagenesis; not shown: GST, N-terminal, cleaved) [FUS-NLS(R524S)]	5.6e+06
RGGRGGGDRGGFGPGKMDSRCEHRQDRRERPY (domain or fragment, human, UniProt P35637 495-526, looked up, ALS-associated mutation found in patients; made by site-directed mutagenesis; not shown: GST, N-terminal, cleaved) [FUS-NLS(G515C)]	1.8e+06
RGGRGGGDRGGFGPGKMDSRGEHRQDRRERPY (domain or fragment, UniProt P35637 495-526, looked up, Cloned in pGEX-6P-2; also called FUS-NLS(WT); WT; not shown: GST, N-terminal, cleaved) [nuclear localization sequence of human FUS (FUS-NLS, residues 495-526), wild type]	2.3e+06
RGGRGGGDRGGFGPGKMDSRGEHKQDRRERPY (domain or fragment, human, UniProt P35637 495-526, looked up, ALS-associated mutation found in patients; made by site-directed mutagenesis; not shown: GST, N-terminal, cleaved) [FUS-NLS(R518K)]	6e+06
RGGRGGGDRGGFGPGKMDSRGEHRQDRRSRPY (domain or fragment, human, UniProt P35637 495-526, looked up, Designed from the structure; not found in familial ALS patients; not shown: GST, N-terminal, cleaved) [FUS-NLS(E523S)]	5500
RGGRGGGDRGGFGPGKMDPRGEHRQDRRERPY (domain or fragment, human, UniProt P35637 495-526, looked up, ALS-associated mutation found in patients; made by site-directed mutagenesis; not shown: GST, N-terminal, cleaved) [FUS-NLS(S513P)]	9.4e+06
RGGRGGGDRGGFDPGKMDSRGEHRQDRRERPY (domain or fragment, human, UniProt P35637 495-526, looked up, ALS-associated mutation found in patients; made by site-directed mutagenesis; not shown: GST, N-terminal, cleaved) [FUS-NLS(G507D)]	5.7e+06

Origin of the recorded values: paper PMC3466232
